System: redroot pigweed (Amaranthus retroflexus)
Measurement Protocol: Test G Pre-Emergence Protocol
Assay type: in vivo
Test Parameters: Amaranthus retroflexus, pre-emergence, 312 h, 250 g ai/ha, evaluated after 13 days, read-out: Pigweed, Redroot damage rating (100=total damage to plant; 0=no damage to plant)
In this section, each of the compounds is paired with its reported pest or weed control at 250 g/ha.
Kindly answer with a numeric value in %, unit omitted.

>>> df
                                   compound  reported_result
0  Cc1ccc([C@H]2CN(C)C(=O)[C@@H]2C(=O)Nc2ccc(F)nc2F)cc1 [Compound 1402]               80
1  CN1C[C@H](c2ccc3c(c2)OCCO3)[C@@H](C(=O)Nc2cccc(F)c2F)C1=O (racemic) [Compound 1490]                0
2  COc1c(F)cc(C2CN(C)C(=O)C2C(=O)Nc2cccc(F)c2F)cc1Cl (stereo not drawn) [Compound 1709]               50
3  CN1C[C@H](c2ccc(C(F)(F)F)cc2)[C@@H](C(=O)Nc2cccnc2[N+](=O)[O-])C1=O (racemic) [Compound 1824]               20

Suppose we examine the compound CN1C[C@@H](c2ccc(C(F)(F)F)cc2)[C@H](C(=O)Nc2n[nH]cc2Cl)C1=O (racemic) [Compound 1658] ; what pest or weed control at 250 g/ha value has been reported?
0

Suppose we examine the compound CN1C[C@@H](c2cc(Cl)nc(Cl)c2)[C@H](C(=O)Nc2cccc(F)c2F)C1=O (racemic) [Compound 1494] ; what pest or weed control at 250 g/ha value has been reported?
30

Suppose we examine the compound CON1C[C@@H](c2cccc(C(F)(F)F)c2)[C@H](C(=O)Nc2cccc(F)c2F)C1=O (racemic) [Compound 1763] ; what pest or weed control at 250 g/ha value has been reported?
0

Suppose we examine the compound Cc1ccc(C2CN(C)C(=O)C2C(=O)Nc2cccc(F)c2F)cc1C#N (stereo not drawn) [Compound 1687] ; what pest or weed control at 250 g/ha value has been reported?
30

Suppose we examine the compound CCOC(=O)c1cccc([C@H]2CN(C)C(=O)[C@@H]2C(=O)Nc2ccccc2F)c1 (racemic) [Compound 1438] ; what pest or weed control at 250 g/ha value has been reported?
0

Suppose we examine the compound COc1ccc([C@H]2CN(C)C(=O)[C@@H]2C(=O)Nc2ccccc2F)c(C)c1 (racemic) [Compound 1455] ; what pest or weed control at 250 g/ha value has been reported?
0

Suppose we examine the compound CN1C[C@@H](c2ccc(C(F)(F)F)cc2)[C@H](C(=O)Nc2nnc[nH]2)C1=O (racemic) [Compound 1562] ; what pest or weed control at 250 g/ha value has been reported?
0

----------
Test system: corn (Zea mays)
Measurement Protocol: Test G Post-Emergence Protocol
Type: in vivo
Test Parameters: Zea mays, post-emergence, 312 h, 62.5 g ai/ha, evaluated after 13 days, 100=total damage to plant, 0=no damage to plant, read-out: Corn damage rating
In this section, each of the compounds is paired with its reported plant injury at 62.5 g/ha.
Kindly answer with a numeric value in %, unit omitted.

Below, 4 compounds whose answers are already recorded.
                                   compound             endpoint_label  reported_result
0  COc1cc(C2CN(C)C(=O)C2C(=O)Nc2cccc(F)c2F)cc(Cl)c1OC (centres unmarked)  plant injury at 62.5 g/ha               20
1  CN1C[C@H](c2ccc(C(F)(F)F)cc2)[C@@H](C(=O)Nc2ccc3ncccc3n2)C1=O (racemic)  plant injury at 62.5 g/ha                0
2  CN1C[C@H](c2cc(Cl)cc(C(F)(F)F)c2)[C@@H](C(=O)Nc2ccccc2S(C)(=O)=O)C1=O (racemic)  plant injury at 62.5 g/ha               60
3  Cc1cc([C@H]2CN(C)C(=O)[C@@H]2C(=O)Nc2cccc(F)c2F)cnn1 (racemic)  plant injury at 62.5 g/ha                0

Suppose we examine the compound COc1cc(Cl)cc(C2CN(C)C(=O)C2C(=O)Nc2cccc(F)c2F)c1 (centres unmarked) ; what plant injury at 62.5 g/ha value has been reported?
70

Suppose we examine the compound COc1c(F)cc(C2CN(C)C(=O)C2C(=O)Nc2cccc(F)c2F)cc1Cl (centres unmarked) ; what plant injury at 62.5 g/ha value has been reported?
60

----------
Tested on: pigweed (Amaranthus retroflexus)
Measurement Protocol: Test A postemergence
Assay type: in vivo
Test Parameters: 500 g ai/ha, postemergence; 0 to 100 scale, 0 no effect, 100 complete control
In this section, each of the compounds is paired with its reported Plant response rating, Pigweed.
Just the number, please, no unit after it.

>>> df
                                   compound                  endpoint_label  reported_result
0  CN1CC(c2ccc(C(F)(F)F)cc2)C(C(=S)Nc2ccccc2F)C1=O (centres unmarked)  Plant response rating, Pigweed               60

Suppose we examine the compound Cc1ccc(C2CNC(=O)C2C(=O)Nc2ccc(F)c(F)c2F)cc1F (racemic) ; what Plant response rating, Pigweed value has been reported?
20

Suppose we examine the compound O=C1NCC(c2cccc(OCC(F)F)c2)C1C(=O)Nc1ccccc1F (racemic) ; what Plant response rating, Pigweed value has been reported?
0

Suppose we examine the compound Cc1ccc(C2CN(C)C(=O)C2C(=O)Nc2cccc(F)c2F)cc1F (centres unmarked) ; what Plant response rating, Pigweed value has been reported?
50

Suppose we examine the compound Cc1cc(C2CN(C)C(=O)C2C(=O)Nc2ccc(F)cc2F)ccc1F (centres unmarked) ; what Plant response rating, Pigweed value has been reported?
60

Suppose we examine the compound O=C1NCC(c2ccc(Br)cc2)C1C(=O)Nc1cccc(F)c1 (centres unmarked) ; what Plant response rating, Pigweed value has been reported?
20

Suppose we examine the compound O=C1NCC(c2cccc(OCC(F)F)c2)C1C(=O)Nc1ccc(F)c(F)c1F (centres unmarked) ; what Plant response rating, Pigweed value has been reported?
0

Suppose we examine the compound Cc1cc(C2CN(C)C(=O)C2C(=O)Nc2ccccc2S(C)(=O)=O)ccc1F (centres unmarked) ; what Plant response rating, Pigweed value has been reported?
50

----------
Tested on: giant foxtail (Setaria faberi)
Measurement Protocol: Test G Pre-Emergence Protocol
Format: in vivo
Test Parameters: Setaria faberi, pre-emergence, 312 h, 62.5 g ai/ha, evaluated after 13 days, 100=total damage to plant, 0=no damage to plant, read-out: Foxtail, Giant damage rating
pest or weed control at 62.5 g/ha strictly less than 70% = Y. Otherwise N.

Examples from the recorded data:
In [3]: df
Out[3]:
                                   compound  category_label
0  CCOc1cc(C2CN(C)C(=O)C2C(=O)Nc2cccc(F)c2F)ccc1OC (stereo not drawn)               N
1  CCOc1ccc(C2CN(C)C(=O)C2C(=O)Nc2cccc(F)c2F)cc1F (stereo not drawn)               N
2  CN1C[C@H](c2cccc(C(F)F)c2)[C@@H](C(=O)Nc2cnccc2C(F)(F)F)C1=O (racemic)               N
3  CN1C[C@@H](c2ccc(C(F)(F)F)cc2)[C@H](C(=O)Nc2ccnc(Cl)c2F)C1=O (racemic)               Y
4  CN1C[C@@H](c2ccc(C(F)(F)F)cc2)[C@H](C(=O)Nc2n[nH]cc2Cl)C1=O (racemic)               Y

Threshold test, pest or weed control at 62.5 g/ha < 70%: Cc1cc(C)cc([C@H]2CN(C)C(=O)[C@@H]2C(=O)Nc2ccccc2S(C)(=O)=O)c1 (racemic)
Y

----------
System: giant foxtail (Setaria faberii)
Measurement Protocol: Test A preemergence
Format: in vivo
Test Parameters: Setaria faberi, pre-emergence, 240 h, 500 g ai/ha, Preemergence, visual injury vs untreated controls after approximately 10 d; read-out: Foxtail, Giant plant response rating (0 to 100 scale where 0 is no effect and 100 is complete control)
In this section, each of the compounds is paired with its reported pest or weed control at 500 g/ha.
Kindly answer with a numeric value in %, unit omitted.

Below, 5 compounds whose answers are already recorded.
>>> print(df.to_string())
                                   compound                    endpoint_label  reported_result
0  Cc1cc(F)cc([C@H]2CN(C)C(=O)[C@@H]2C(=O)Nc2ccccc2F)c1 [Compound 850]  pest or weed control at 500 g/ha               90
1  CN1C[C@H](c2cc(F)c(C(F)(F)F)c(F)c2)[C@@H](C(=O)Nc2ccc(F)cc2F)C1=O [Compound 901]  pest or weed control at 500 g/ha               90
2  CN1C[C@H](c2ccc(C(F)(F)F)cc2)[C@@H](C(=O)Nc2ccccc2[S+](C)[O-])C1=O (some centres unmarked) [Compound 915]  pest or weed control at 500 g/ha              100
3  CN1CC(c2cccc(I)c2)C(C(=O)Nc2ccccc2F)C1=O (centres unmarked) [Compound 846]  pest or weed control at 500 g/ha               90
4  CN1C[C@H](c2cccc(COC(F)F)c2)[C@@H](C(=O)Nc2ccccc2F)C1=O [Compound 875]  pest or weed control at 500 g/ha               90

Now consider a different compound.
Suppose we examine the compound N#Cc1cccc(NC(=O)[C@H]2C(=O)NC[C@@H]2c2cccc(C(F)(F)F)c2)c1F [Compound 829] ; what pest or weed control at 500 g/ha value has been reported?
90
